Target: Human immunodeficiency virus type 1 integrase (Human immunodeficiency virus 1)
Sequence (Q7ZJM1 whole entry): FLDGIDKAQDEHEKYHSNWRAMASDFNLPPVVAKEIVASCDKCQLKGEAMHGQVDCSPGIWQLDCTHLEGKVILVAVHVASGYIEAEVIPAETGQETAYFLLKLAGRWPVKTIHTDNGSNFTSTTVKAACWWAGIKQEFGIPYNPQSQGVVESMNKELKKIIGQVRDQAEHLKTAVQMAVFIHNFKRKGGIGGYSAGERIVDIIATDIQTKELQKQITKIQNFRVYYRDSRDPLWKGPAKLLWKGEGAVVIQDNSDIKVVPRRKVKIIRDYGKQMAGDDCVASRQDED
Assay: Inhibition of recombinant full length C-terminal His-tagged HIV1 integrase expressed in Escherichia coli BL21(DE3) cells assessed as reduction in LEDGF/p75 independent 3' processing activity using 32P-labeled blunt ended 21-mer DNA as substrate preincubated for 30 mins followed by substrate addition measured after 1 hr by […]
measure_name: pIC50
Would you please state pIC50, meaning minus log10 of the concentration in mol/L, as a bare number?

Query: Using known records, supply pIC50 for Cn1c(C(OC(C)(C)C)C(=O)O)c(-c2ccc3c(c2)CCCO3)c2ccccc21 (stereo unspecified)
Reply: 5.49
